Reference source for all entries: patent US20230212304A1

Recorded pIC50, one value per entry.
# TGT: T1, recombinant human CTLA4 protein with human IgG1 Fc tag at the C-terminus (Acro biosystems, Cat#CT4-H5255) (human, UniProt P16410 37-162)
# T1 construct: bought protein; also called human CTLA4-Fc; CTLA4-Fc; not shown: human IgG1 Fc tag at the C-terminus
# T1 sequence (looked up): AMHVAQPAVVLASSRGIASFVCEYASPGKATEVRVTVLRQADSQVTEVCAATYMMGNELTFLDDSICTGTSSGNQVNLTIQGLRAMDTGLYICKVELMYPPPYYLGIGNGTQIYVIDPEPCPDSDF
# PROTOCOL DESCRIPTION: competitive ELISA: antibody pre-mixed with biotin human CTLA4-Fc (65 ng/ml), added to plate coated with the benchmark; competitor: coated Yervoy
Remember, pIC50 is on a log scale: it is -log10 of the molar concentration.

BINDER	NUMERIC RESULT
mouse anti-CTLA4 monoclonal antibody C1G4 (antibody, V domains shown, mouse mAb purified from hybridoma supernatant) VH: EVKLDETGGGLVQPGRPIKLSCVASGFTFSDNWMNWVRQSPEKGLEWVAQIRNKPYNYETYYSDSVKGRFTISRDDSKSSVYLQMNNLRTKDMGIYYCTGGFTYWGQGTLVTVSA VL: DIQMTQSPPSLSASVGETVTITCGASENIYGGLNWYQRKQGKSPQLLIYGATNLADGMSSRFSGSGSGRQYSLKISRLHPDDVATYYCQNVLNTPYTFGGGTKLEIK	9.06

Input line: If you can, please state the reported pIC50 value of mouse anti-CTLA4 monoclonal antibody D1D5 (antibody, V domains shown, mouse mAb purified from hybridoma supernatant) VH: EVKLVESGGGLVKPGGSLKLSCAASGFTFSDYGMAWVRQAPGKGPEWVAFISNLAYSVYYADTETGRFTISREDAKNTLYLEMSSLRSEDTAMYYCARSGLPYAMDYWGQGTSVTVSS VL: DIQMTQTTSSLSASLGDRVTISCRASQDISNYLNWYQQKPDGTVKLLIYYISRLHSGVPSRFSGSGSGTDFSLTISNLEQEDIATYFCQQGRMLPWTFGGGTRLEIK .
Output line: 9.19
